// data source = PubChem BioAssay (Tox21)

- ASSAY TEXT: A CellTox Green Cytotoxicity Assay to monitor cytotoxicity in HepG2 cells - 0 hour (AID 1224882); further: nearly all actives have a fitted effect of over 35% in size
- MEASUREMENT CONDITIONS: CellTox Green fluorescence; series mostly up to 76.8 µM
The source made the active and inactive calls. The call rests on the fitted dose curve; in most records, active means well fitted activation curve with a large enough effect in the repeat runs; inconclusive means weak or mixed curves; inactive means flat fitted curve, though single readings scatter.
METRIC NAME: cytotoxicity

COc1cc(C(=O)OCCCN2CCCN(CCCOC(=O)c3cc(OC)c(OC)c(OC)c3)CC2)cc(OC)c1OC : inactive
CC(C)CC(=O)C1C(=O)c2ccccc2C1=O : inactive
O=C(Nc1ccccc1)c1ccccc1O : inactive

---

- SYSTEM NAME: Estrogen receptor (Homo sapiens) (UniProt P03372)
- Sequence (P03372 whole entry, looked up): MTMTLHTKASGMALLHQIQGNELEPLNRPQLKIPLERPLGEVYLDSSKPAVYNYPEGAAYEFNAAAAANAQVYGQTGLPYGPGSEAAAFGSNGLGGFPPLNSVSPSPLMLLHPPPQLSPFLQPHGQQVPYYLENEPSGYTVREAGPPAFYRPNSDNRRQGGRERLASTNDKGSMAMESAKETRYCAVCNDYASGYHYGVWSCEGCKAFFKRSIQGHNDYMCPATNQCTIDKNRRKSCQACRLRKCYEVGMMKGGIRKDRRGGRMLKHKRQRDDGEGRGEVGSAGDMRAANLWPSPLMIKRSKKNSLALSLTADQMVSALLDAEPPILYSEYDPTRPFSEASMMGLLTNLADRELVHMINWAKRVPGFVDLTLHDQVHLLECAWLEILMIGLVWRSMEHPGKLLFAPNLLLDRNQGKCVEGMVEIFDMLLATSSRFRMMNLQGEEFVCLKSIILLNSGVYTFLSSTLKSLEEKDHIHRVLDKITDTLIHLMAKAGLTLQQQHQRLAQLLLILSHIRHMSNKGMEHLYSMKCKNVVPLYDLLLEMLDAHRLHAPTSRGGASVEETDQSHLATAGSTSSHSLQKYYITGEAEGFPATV
- ASSAY TEXT: qHTS assay to identify small molecule agonists of the estrogen receptor alpha (ER-alpha) signaling pathway using the BG1 cell line (AID 743079); further: nearly all actives have a fitted effect of over 20% in size; further: potency means the concentration at half of the fitted maximal effect
- MEASUREMENT CONDITIONS: BG1Luc4E2 cells, ERE-luciferase agonist, 22 h; series mostly up to 70.3 µM
Records with an inconclusive call do not appear. Activity calls are given as the source filed them. The call rests on the fitted dose curve; in most records, active means well fitted activation curve with a large enough effect in the repeat runs; inconclusive means weak or mixed curves, or effect the other way; inactive means no such curve, though single readings can be large or run the other way.
METRIC NAME: Potency

For orientation, consider the following solved cases.
CN(Cc1ccc(C(C)(C)C)cc1)Cc1cccc2ccccc12 : inactive
CCN(CC)CCOC(=O)C(c1ccccc1)C1CCCCC1 (centres undefined) : inactive
CCOCC(O)COc1ccc(NC(=O)CC[S+](C)C)cc1 (centres undefined) : inactive
CC1CCC(=O)C1=O (centres undefined) : inactive

(Q) Notebook entry, Estrogen receptor (Homo sapiens) (UniProt P03372) assay: Potency of `CCO[C@H](Cc1ccc(OCCc2ccc(OS(C)(=O)=O)cc2)cc1)C(=O)O` = ?
(A) inactive

(Q) Same for COc1cc2nc(N(C)CCCNC(=O)C3CCCO3)nc(N)c2cc1OC (centres undefined)
(A) inactive

(Q) Same for `CC(=O)c1cccc([N+](=O)[O-])c1`
(A) inactive

(Q) Same for `Brc1c2ccccc2cc2ccccc12`
(A) 30.9 µM (active)

(Q) Same for `c1ccc(CNCCNCc2ccccc2)cc1`
(A) inactive

(Q) Same for `C[N+](C)(C)CCOC(=O)CCC(=O)OCC[N+](C)(C)C`
(A) inactive

(Q) Same for `CCN(CC)CCNC(=O)c1cc(Br)c(N)cc1OC`
(A) inactive
